test.protocol: Toxicity liver stage against HepG2, at 10uM
Assay type: cell-based
Parameters: test concentration 10 uM, cell line HepG2-A16-CD81EGFP
run.parameters: human, HepG2-A16-CD81EGFP cells; read-out: INHIBITION
Provide the reported cytotoxicity at 10 µM of each item.
Numbers only, in %.

O=C(Nc1ccccc1)c1cc2n(n1)CCCN(C(=O)c1ccc[nH]1)C2 ... 3.99

Provide reported cytotoxicity at 10 µM for each item, in the same order as listed.
1. CCOc1ccc(C(=O)N2CCCC2c2c(C)nn(C)c2Cl)cn1 (stereo unspecified)
2. Cc1sc2nc(CCN)nc(N3CC(N4CCCCC4)C3)c2c1C
3. Cc1nc(O)cc(CCNC(=O)c2ccc(CN3CCCCC3)cc2)n1
4. CCN1CCC(NN2CCN(C)CC2)CC1
5. Cc1ccc2c(c1)c(CNC(C)Cn1nc(C)cc1C)nn2C (stereo unspecified)

1: -12.4; 2: -21.9; 3: 8.61; 4: 0.935; 5: -10.5

====

test.protocol: Toxicity liver stage against HepG2, at 10uM
Type: cell-based
Parameters: test concentration 10 uM, cell line HepG2-A16-CD81EGFP
run.parameters: human, HepG2-A16-CD81EGFP cells; read-out: INHIBITION
Provide the reported cytotoxicity at 10 µM of each item.
One number for each entry, in %.

Provide reported cytotoxicity at 10 µM for each item, in the same order as listed.
1. Cc1c(Cl)cc(C(=O)NCCc2ncnn2C)cc1Cl
2. O=C(c1ncccn1)N1C[C@@H]2CN(CC3CC3)CCO[C@@H]2C1
3. CCOCCc1nc(-c2cnn3c(C)cc(C)nc23)no1
4. CSCC(C)(O)CNc1ccccn1 (configuration not stated)
5. Cc1ccc(N2CCCC(NC(=O)Nc3cnn(C)c3)C2=O)cc1 (configuration not stated)
6. Cc1nn(CCNC(C)Cn2cncn2)c(C)c1Cl (configuration not stated)
7. COCCOc1ncccc1CNCc1c(C)nn(C)c1N(C)C
8. c1csc(-c2noc(CN3CCCC3Cn3cccn3)n2)c1 (configuration not stated)

6.07
6.99
3.53
8.26
-44
13.4
-9.36
-12.7

Provide reported cytotoxicity at 10 µM for each item, in the same order as listed.
1. COc1ccc2c(c1)CCCC2CC(=O)O (configuration not stated)
2. Cn1cnnc1CNC(=O)CCCOc1ccccc1Cl
3. c1cnn(CCNCCCOc2ccc3c(c2)OCO3)c1
4. COC(CNC(=O)CNC(=O)c1ccccc1)c1cccc(Cl)c1 (configuration not stated)

-2.74
3.28
7.61
5.61

====

Provide the reported cytotoxicity at 10 µM of each item.
test.protocol: Toxicity liver stage against HepG2, at 10uM
Type: cell-based
Design: test concentration 10 uM, cell line HepG2-A16-CD81EGFP
run.parameters: human, HepG2-A16-CD81EGFP cells; read-out: INHIBITION
Give bare numbers, in %.

CCn1nc(C)c(C(C)NC(=O)c2cnc(N(C)C)nc2C)c1C (centres undefined) ... 5.19
COc1ccc(-c2n[nH]c(C)c2CC(=O)NCCN2CCOCC2)cc1 ... -13.4
CCn1cc(CN2CCCC(c3[nH]ncc3-c3ccc(F)cc3)C2)cn1 (centres undefined) ... 1.63

Provide reported cytotoxicity at 10 µM for each item, in the same order as listed.
1. CCNc1ncc(C(=O)N2CCc3c(nc(C)nc3N(C)C)C2)cn1
2. CC(C)CC(=O)N1CCCC2(CC(C(=O)Nc3ccccc3)=NO2)C1 (centres undefined)
3. CC(C)(Oc1ccc(C(N)=O)cc1)C(=O)N(CCC#N)C1CC1
4. COc1ccc(CCC(=O)Nc2ccncc2C)cc1
5. Cc1ccc(CN2CCNC(=O)C2CC(=O)N2CCSCC2)o1 (centres undefined)
6. CC(=O)Nc1ccc2c(c1)C1(CCOCC1)C(=O)N2c1ccsc1

[-3.28, 1.46, 1.58, 16.1, 4.48, 5.56]

Provide reported cytotoxicity at 10 µM for each item, in the same order as listed.
1. Cc1ncc(CN2CCCC2)c2cc(C(=O)c3ccc(Br)cc3)oc12
2. Cc1cc(C)n2nc(C(=O)N3CCCC4(CCOC4)C3)cc2n1 (centres undefined)
3. CCOC(=O)c1sc2ccsc2c1CNC(=O)C(C)OC (centres undefined)
4. O=C(NCC1CC1)C1CSCN1S(=O)(=O)c1cc(F)cc(F)c1 (centres undefined)
5. Cc1nn(CC(=O)N2CCN(Cc3cccnc3)CC2)c(C)c1Cl
6. Cc1noc(C)c1CN1CC[C@H]2OCC[C@@H](C(=O)NCC3CC3)[C@@H]2C1
7. O=C(Cc1n[nH]c2ccccc12)N1CCCCC1Cn1cccn1 (centres undefined)

1. 1.46
2. 7.73
3. -4.07
4. 6.35
5. 0.612
6. -8.55
7. -14.8

Provide reported cytotoxicity at 10 µM for each item, in the same order as listed.
1. NS(=O)(=O)CCNC(=O)c1nnn(-c2ccccc2)c1C1CC1
2. O=C(c1coc(COc2ccccc2F)n1)N1CCCO1
3. Cc1cnccc1N1CCCN(C(=O)CCCc2cn[nH]c2)CC1
4. CCc1n[nH]c(C2CN(C(=O)c3nc(C)n4ccccc34)CCO2)n1 (centres undefined)
5. NC1(CN2CCCCC2)CCCCC1

[-12.2, 6.29, -30.3, -11.2, 1.46]

Provide reported cytotoxicity at 10 µM for each item, in the same order as listed.
1. COc1ccc(CN2CCc3[nH]nc(C(=O)N(C)C)c3C2)cc1
2. O=C(NC[C@]12COC[C@H]1CN(Cc1nccs1)C2)c1ccsc1
3. CC(=O)N1CCN(c2cc(CCN)nc(C3CC3)n2)CC1

[5.18, 4.09, -26.2]
